- TARGET_ENTITY: Gal3S(b1-4)[Fuc(a1-3)]GlcNAc
- PROCEDURE_SUMMARY: glycan array binding signal (z-score within array); higher = stronger binding
- CONDITION_DESCRIPTION: glycan notation: IUPAC condensed, linker removed
This excerpt belongs to a sample that is enriched for the strongest signals.
PROPERTY_LABEL: glycan array binding signal (z-score)
Give bare numbers.

A selection of reference data follows.
>>> reported_result("Cohesin-hMARCO (Homo sapiens) (protein) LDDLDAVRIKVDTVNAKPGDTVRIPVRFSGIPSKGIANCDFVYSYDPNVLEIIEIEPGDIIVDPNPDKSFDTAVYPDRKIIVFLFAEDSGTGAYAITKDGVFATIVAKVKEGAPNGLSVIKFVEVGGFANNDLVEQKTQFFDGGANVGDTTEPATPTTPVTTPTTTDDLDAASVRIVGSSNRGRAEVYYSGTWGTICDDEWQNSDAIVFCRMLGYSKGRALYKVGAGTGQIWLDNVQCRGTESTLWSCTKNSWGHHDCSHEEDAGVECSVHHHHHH")
-0.386
>>> reported_result("KISKRILTGKK [NK11 (Sus scrofa)]")
2.52

# input for lookup
input: # return recorded glycan array binding signal (z-score) for input MGL2 (Mus musculus), Q8JZN1 (protein) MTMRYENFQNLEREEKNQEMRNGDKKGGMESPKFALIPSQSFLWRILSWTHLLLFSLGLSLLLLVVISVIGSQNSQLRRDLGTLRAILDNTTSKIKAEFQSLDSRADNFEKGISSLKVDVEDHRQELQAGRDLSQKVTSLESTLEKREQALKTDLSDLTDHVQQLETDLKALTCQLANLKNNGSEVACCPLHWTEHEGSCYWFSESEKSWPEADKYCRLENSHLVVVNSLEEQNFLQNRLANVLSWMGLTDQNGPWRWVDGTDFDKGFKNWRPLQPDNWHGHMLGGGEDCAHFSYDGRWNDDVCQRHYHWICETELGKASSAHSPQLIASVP
output: -0.228

The origin of these recorded values is the supplement of paper PMC8728848.
